I'd be grateful if you could share measured protein stability index for these entries.
Tested on: Saccharomyces cerevisiae
Test: protein stability index of tFT-peptide fusion (C-terminal peptide) (PSI (0-1 scale)); higher = more stable (slower turnover);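 further: PSI is a weighted mean of sequencing reads over stability bins, variants kept only with over 10 reads, mCherry proximal and sfGFP distal, peptide attached via GGGS linker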
Settings: genetic background: wild type; temperature: 30 C
Answers are plain numbers.

Use the examples below as a reference point.
For reference, reported protein stability index for `RLPPPLPQAPPT` stands at 0.712

protein stability index reading for `LHSNFGSSVFSL` : 0.713

Field protein stability index (entry `TEVRHMKGVAWW` ) reads 0.692

The sequence identified as `VDTTISVCCSVC` registered its protein stability index at 0.683

protein stability index measured on `HSPHSQYLLRID` = 0.72

The sequence identified as `LYVIGGTDLVGG` registered its protein stability index at 0.72

Fill in protein stability index for each of the 3 sequences listed.
1. AFDKDLLGMMFS
2. VPPVLRPLPPSP
3. AVPAPPPTLPPI

Out:
[0.692, 0.72, 0.685]

Would you be so kind as to report protein stability index for each listed record?
1. RPQNDRKMRKVE
2. PARCRPSSPAPL
3. RWGPGAVWGRGR
4. HRDVISVVRNMS
5. CKFPSLCVLSSV

Out:
1. 0.621
2. 0.726
3. 0.707
4. 0.43
5. 0.654

###

Tested on: Saccharomyces cerevisiae
Test: protein stability index of tFT-peptide fusion (C-terminal peptide) (PSI (0-1 scale)); higher = more stable (slower turnover)
Conditions: genetic background: cdc53-1; temperature: 37 C
Decide using protein stability index: a value greater than or equal to 0.6 is Met, a smaller one is Not met.

In: I'd appreciate it if you could say whether `CFSLLFYTLSLL` has protein stability index at least equal to 0.6.
Out: Not met

In: Confirm if protein stability index reported for the sequence `LLFYSYFFFVLY` is 0.6 or above.
Out: Not met

In: Does protein stability index meet or surpass 0.6 for `VVLCQVCVLWGW` ?
Out: Not met

In: State whether the measured protein stability index reaches 0.6, counting equality as reaching it, for `CSFCSGMILLLS`
Out: Not met

From here, focus on the item given below.
In: Dear colleague, could you confirm whether `GITSFFSWSFLS` has protein stability index at or above 0.6?
Out: Met

###

System: Saccharomyces cerevisiae
Test: protein stability index of tFT-peptide fusion (C-terminal peptide) (PSI (0-1 scale)); higher = more stable (slower turnover)
Settings: genetic background: das1 deletion; temperature: 37 C
Readout name: protein stability index
Numbers only.

For orientation, consider the following solved cases.
get_value(item= `IWVWMLSVWLGG` , readout=protein stability index) returns 0.409

For record `CMILVACFYLPS` the listed protein stability index is 0.455

Item: `HRDVISVVRNMS` | protein stability index: 0.715

`CWILLFGCVWVG` yielded protein stability index of 0.397

Just so you know, measured protein stability index for `RVGWVVVLGCVG` came out at 0.578

Documented protein stability index of `GRVAIFTLLWRI` : 0.362

Give one value of protein stability index per listed sequence.
1. IRVLACFLFAVS
2. VGRVIVIVVAGV

Out:
0.32
0.454

# batch: return protein stability index for each of the 3 sequences below
1. GLWLRVCIVAWV
2. MALAVRVVACGA
3. LFIVTFIPVLFS

Out:
1: 0.19; 2: 0.281; 3: 0.623

Batch request: protein stability index per item, same order as input.
1. VFAFVVFLHFEC
2. ICTHPCLRLRLN
3. YCAMVAVGVVGG
4. ERRWKRKVIGLC

Out:
[0.375, 0.732, 0.503, 0.734]
